tested on: SF-295; assay: Induction of apoptosis in human SF295 cells assessed as apoptotic nuclei at 5 uM after 24 hrs by acridine orange/ethidium bromide staining based fluorescence microscopy; assay type: functional
Kindly supply the reported Activity values for the records listed here.
Give bare numbers, in %.

Example entries and their recorded answers appear below.
What does the data say about its Activity? Entry: Cc1ccc(-c2nc3ccc4c(c3[nH]2)C(=O)c2ccccc2C4=O)cc1 5.82

Form field: reported Activity of CC(C)CCC1=C(OC2(CCC(C)C)C(=O)C(=O)c3ccccc3C2=O)C(=O)c2ccccc2C1=O (stereo not given) 7.94

Name the reported Activity value associated with the compound CC(C)=CCC1=C(OC2(CC=C(C)C)C(=O)C(=O)c3ccccc3C2=O)C(=O)c2ccccc2C1=O (stereo not given) 11.45

Look up Activity for the entries below, preserving their order.
1. O=C1c2ccccc2C(=O)c2c1ccc1nc(-c3ccccc3O)[nH]c21
2. O=C1c2ccccc2C(=O)c2c1ccc1nc(-c3cccc(O)c3)[nH]c21

11.73
13.51
